Values were extracted from patent US20200317779A1.

target: recombinant cynomolgus monkey CD3ε/δ heterodimer (cynomolgus monkey) (UniProt Q95LI5); assay: ELISA, coated CD3ε/δ
Sequence (Q95LI5 22-117, stated change not applied, chain 1 of 2): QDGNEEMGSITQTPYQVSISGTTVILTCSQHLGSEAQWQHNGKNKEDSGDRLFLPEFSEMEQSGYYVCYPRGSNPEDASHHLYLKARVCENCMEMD
Sequence (Q95LI8 22-105, stated change not applied, chain 2 of 2, further chain): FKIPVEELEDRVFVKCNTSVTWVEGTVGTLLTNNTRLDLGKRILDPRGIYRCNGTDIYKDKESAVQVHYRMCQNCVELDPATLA
reportedEndpoint: Absorbance (450 nm)

**Query** Reported Absorbance (450 nm) for G02 (antibody, human IgG1, lambda, L234A L235A, V domains shown) VH: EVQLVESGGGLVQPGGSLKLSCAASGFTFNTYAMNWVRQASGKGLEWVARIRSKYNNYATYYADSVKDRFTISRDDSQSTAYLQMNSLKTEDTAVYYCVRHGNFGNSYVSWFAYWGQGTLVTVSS VL: QAVVTQEPSLTVSPGGTVTLTCRSSTGAVTTSNYANWFQQKPGQAPRTLIYGTNKRAPWTPARFSGSLLGDKAALTLSGAQPEDEAEYYCALWYSNLWVFGGGTKLTVLG : what is it?
**Result** 0.069

**Query** Reported Absorbance (450 nm) for H13 (antibody, human IgG1, lambda, L234A L235A, V domains shown) VH: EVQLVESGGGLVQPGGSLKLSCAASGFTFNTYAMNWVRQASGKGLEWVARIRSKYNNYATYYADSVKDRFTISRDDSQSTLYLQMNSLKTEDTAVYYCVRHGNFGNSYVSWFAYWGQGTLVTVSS VL: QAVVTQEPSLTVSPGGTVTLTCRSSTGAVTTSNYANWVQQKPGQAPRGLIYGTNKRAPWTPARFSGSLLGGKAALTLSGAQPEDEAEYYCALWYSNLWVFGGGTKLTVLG : what is it?
**Result** 0.196

**Query** Reported Absorbance (450 nm) for F14 (antibody, human IgG1, lambda, L234A L235A, V domains shown) VH: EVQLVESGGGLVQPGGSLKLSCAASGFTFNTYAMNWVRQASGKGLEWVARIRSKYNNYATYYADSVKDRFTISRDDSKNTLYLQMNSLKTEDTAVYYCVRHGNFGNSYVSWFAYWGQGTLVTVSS VL: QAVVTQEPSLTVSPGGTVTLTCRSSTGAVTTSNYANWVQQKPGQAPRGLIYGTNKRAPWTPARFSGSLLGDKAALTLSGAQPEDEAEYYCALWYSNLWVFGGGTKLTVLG : what is it?
**Result** 0.1
